Test: antivirals protecting cells from dengue CPE – CPE readout, HTS (AID 540333)
Details: Dengue virus CPE inhibition in host cells, at 20 µM
Screen size: about 10,000 compounds; about 320 (3.2%) were called active. No stated cut-off is given here; in the data, active means CPE inhibition mostly above about 9.1% (no sharp cut-off); inactive means mostly below about 7.2%. The entries come from a sample that favours actives as a whole.
Valid outcomes are listed here; reply with one: active, inactive

Ask: Record request — test call for O=C(CSCc1ccc([N+](=O)[O-])cc1)NC1CC1
Result: inactive

Ask: Record request — test call for O=C(c1cccs1)N1N=C(c2ccccc2)CC1c1ccc(O)cc1 (stereo not given)
Result: active

Ask: Record request — test call for CC(C)(C)OC(=O)N[C@H](C(=O)OC(C)(C)C)c1ccc2ccccc2c1
Result: inactive

Ask: Record request — test call for CCOC(=O)N1CCN(C(=O)COc2cccc3c2CCN(Cc2ccc(F)cc2)C3=O)CC1
Result: inactive

Ask: Record request — test call for COC(=O)c1ccc(COc2cccc3c2CCN(Cc2cccc(C)c2)C3=O)o1
Result: inactive

Ask: Record request — test call for COc1ccc(CCNC(=O)c2ccccc2N(C)S(=O)(=O)c2ccccc2)cc1
Result: inactive

Ask: Record request — test call for CC(C)(C)NC(=O)C(c1cccs1)N(CC1CCCO1)C(=O)c1ccc(-c2ccccc2)[nH]1 (stereo not given)
Result: active

Ask: Record request — test call for COc1cccc(NC(=S)NNC(=O)Cn2nc(C(F)(F)F)cc2C)c1
Result: inactive

Ask: Record request — test call for CC1CC(=O)N(c2ccc(NCc3ccc(Cl)cc3)c([N+](=O)[O-])c2)C1=O (stereo not given)
Result: inactive

Ask: Record request — test call for C[C@]1(C(=O)NCCc2c[nH]c3ccccc23)C=C[C@@H](Cc2ccccc2)N1C(=O)c1ccccc1
Result: active

* * *

Experiment: antivirals protecting cells from dengue CPE – CPE readout, HTS (AID 540333)
Settings: Dengue virus CPE inhibition in host cells, at 20 µM
Out of some 10,000 compounds screened, about 320 (3.2%) were called active. Rule as the data show it: active = CPE inhibition mostly above about 9.1% (no sharp cut-off); inactive = mostly below about 7.2%. The full list was thinned out, with actives kept by preference.
Valid outcomes are listed here; reply with one: y = active, n = inactive

Ask: Record request — test call for CCOC(=O)C1=C(C)N(Cc2ccccc2)C(=O)NC1c1ccccc1OS(=O)(=O)c1ccccc1[N+](=O)[O-] (stereo unspecified)
Result: y

Ask: Record request — test call for O=S(=O)(c1ccc(-c2csc(Nc3ccc(F)cc3)n2)cc1)N1CCCC1
Result: n

Ask: Record request — test call for Cc1ccc(C(O)(C(=O)NNc2ccc3ccccc3n2)c2ccc(C)cc2)cc1
Result: n

Ask: Record request — test call for O=C(Nc1ccc(Cl)cc1)c1cccc(N2C(=O)C3C4CCC(C4)C3C2=O)c1 (stereo unspecified)
Result: n

Ask: Record request — test call for O=C(COC(=O)c1oc2ccccc2c1COc1ccccc1)NCCN1C(=O)CSC1=O
Result: n

Ask: Record request — test call for CCCCCCn1nc(C(=O)Nc2nc3c(s2)CCCC3)c2ccccc2c1=O
Result: y

Ask: Record request — test call for CC(C(=O)NC1CCCc2ccccc21)N1CCN(c2ccc(F)cc2)CC1 (stereo unspecified)
Result: n

Ask: Record request — test call for COc1ccc(C)cc1NC(=O)c1cc2c(s1)CCC2
Result: n

Ask: Record request — test call for Cc1ccc(C)c(NC(=O)COC(=O)c2cccc3c2C(=O)c2ccccc2C3=O)c1
Result: n

Ask: Record request — test call for O=C(O)c1ccc(NC(=O)c2cccc(N3C(=O)C4C5CCC(C5)C4C3=O)c2)cc1 (stereo unspecified)
Result: n

Ask: Record request — test call for CCC(OCC(O)CN1CCN(CCN2C(=O)c3cccc4cccc(c34)C2=O)CC1)c1ccccc1 (stereo unspecified)
Result: n

Ask: Record request — test call for COc1cc(C(=O)NC(=S)NC(C)C)cc(OC)c1OC
Result: n

Ask: Record request — test call for O=C(Nc1nc2c(s1)CCCC2)c1cc(-c2ccccc2)nc2ccccc12
Result: n

Ask: Record request — test call for CC(C)OC(=O)/C(=C/c1ccc(Br)cc1)NC(=O)c1ccco1
Result: n

Ask: Record request — test call for O=S(=O)(c1ccc(-c2csc(Nc3ccc(Br)cc3)n2)cc1)N1CCCC1
Result: n

Ask: Record request — test call for CCOC(=O)CSc1ncnc2c1c(-c1ccccc1)cn2-c1ccc(OC)cc1
Result: n

Ask: Record request — test call for Cc1ccc(-c2cc(C(F)(F)F)c(C#N)c(=O)[nH]2)cc1
Result: n

Ask: Record request — test call for O=c1[nH]cnc2c1c(-c1ccccc1)cn2-c1ccc(Br)cc1
Result: y

Ask: Record request — test call for CC(C)(C)NC(=O)c1ccc2c(c1)C1C3CCC(C3)C1C(c1ccccc1)N2 (stereo unspecified)
Result: y

Ask: Record request — test call for CCCCn1c(=N)n(CCOc2ccc(C)cc2)c2ccccc21
Result: n

Ask: Record request — test call for COC(=O)C(C)Sc1ncnc2c1c(-c1ccccc1)cn2-c1ccc(OC)cc1 (stereo unspecified)
Result: n

* * *

Assay: antivirals protecting cells from dengue CPE – CPE readout, HTS (AID 540333)
Details: Dengue virus CPE inhibition in host cells, at 20 µM
The whole screen tested about 10,000 compounds, of which about 320 (3.2%) were called active. Rule as the data show it: active = CPE inhibition mostly above about 9.1% (no sharp cut-off); inactive = mostly below about 7.2%. The entries come from a sample that favours actives as a whole.
Valid outcomes are listed here; reply with one: y for active, n for inactive

Ask: Record request — test call for COc1ccc2c(c1)C(=O)N1[C@H]3c4cc(C)ccc4OC[C@@H]3[C@H](c3ccccc3)[C@]1(C)C(=O)N2
Result: y

Ask: Record request — test call for C[C@]12C(=O)N(c3ccc(C(F)(F)F)cc3)C(=O)N1[C@H]1c3ccccc3OC[C@@H]1[C@H]2c1ccccc1
Result: n

Ask: Record request — test call for CCOC(=O)[C@@H]1[C@H]2COc3cc(OC)ccc3[C@@H]2N2C(=O)N(c3ccccc3)C(=O)[C@]12C
Result: n

Ask: Record request — test call for CCOC(=O)[C@@H]1[C@H]2COc3cc(OC)ccc3[C@H]2N2C(=O)N(c3ccc(F)cc3)C(=O)[C@@]12C
Result: n

Ask: Record request — test call for COc1cc2c(cc1OC)C(=O)N1[C@H]3c4cc(Cl)ccc4OC[C@@H]3[C@H](c3ccccc3)[C@]1(C)C(=O)N2
Result: y

Ask: Record request — test call for O=C(COC(=O)c1ccccc1Cl)NC(=O)NCc1ccccc1
Result: n

Ask: Record request — test call for CCOc1ccc(N2C(=O)/C(=C/c3ccco3)N(C)C2=S)cc1
Result: n

Ask: Record request — test call for C[C@@]12C(=O)Nc3ccc(Br)cc3C(=O)N1[C@H]1c3cc(Cl)ccc3OC[C@@H]1[C@@H]2c1ccccc1
Result: y

Ask: Record request — test call for Nc1cc(Cl)ccc1C(=O)OCC(=O)NC(=O)NCc1ccccc1
Result: y

* * *

Experiment: antivirals protecting cells from dengue CPE – CPE readout, HTS (AID 540333)
Conditions: Dengue virus CPE inhibition in host cells, at 20 µM
The campaign covered roughly 10,000 compounds. About 320 (3.2%) were called active. Rule as the data show it: active = CPE inhibition mostly above about 9.1% (no sharp cut-off); inactive = mostly below about 7.2%. This is one part of a sample in which actives are shown more often than they occur.
Valid outcomes are listed here; reply with one: T = active, F = inactive

Ask: Record request — test call for Nn1cnc2c(c1=O)C1(CCCCC1)Cc1ccccc1-2
Result: F

Ask: Record request — test call for Cc1cc(C)c2[nH]c(=O)c(CN(Cc3cccs3)C(=S)NCc3ccco3)cc2c1
Result: F

Ask: Record request — test call for COc1ccc([C@@H]2[C@@H]3C(=O)N(C(C)(C)C)C(=O)[C@@H]3[C@]3(Cc4ccccc4)C(=O)N(c4ccc(OC)cc4)C(=O)N23)cc1
Result: F

Ask: Record request — test call for CC(=O)Nc1sc(C)c(C)c1C(=O)OCC(=O)N(CC(C)C)C1CCS(=O)(=O)C1 (stereo not drawn)
Result: F

Ask: Record request — test call for O=C(N/N=C\c1ccc(-c2ccccc2[N+](=O)[O-])o1)C1COc2ccccc2O1 (stereo not drawn)
Result: F

Ask: Record request — test call for O=C(CNc1cc(S(=O)(=O)N2CCCC2)ccc1OCC(F)(F)F)Nc1cccc(C(F)(F)F)c1
Result: T

Ask: Record request — test call for CCN(Cc1ccccc1)c1ccc(/C=N/N=C(N)N)cc1
Result: F

Ask: Record request — test call for CCN1C(=O)[C@H]2[C@@H](c3ccc(C)cc3)N3C(=O)N(c4ccccc4)C(=O)[C@@]3(CC)[C@H]2C1=O
Result: F

Ask: Record request — test call for Cc1ccccc1CSCC(=O)Nc1ccccc1-c1ccccc1
Result: F

Ask: Record request — test call for O=C(CCN1C(=O)c2ccccc2C1=O)C1=NN[C@@H]2C(=O)N(c3cccc(F)c3)C(=O)[C@H]12
Result: F

Ask: Record request — test call for Clc1ccc2nc(-c3ccncc3)cc(-c3ccccc3)c2c1
Result: F

Ask: Record request — test call for COc1ccc(-c2cc(C(=O)OCC(=O)Nc3ccc4c(c3)OCO4)c3ccccc3n2)cc1
Result: F

Ask: Record request — test call for CCOC(=O)/C(N=Nc1sc(C(=O)OC)c(C)c1C(=O)OCC)=C(\O)CCl
Result: F

Ask: Record request — test call for CNc1nc(Nc2ccc(C)c(Cl)c2)nc(N)c1[N+](=O)[O-]
Result: T

Ask: Record request — test call for CCOC(=O)c1c(NC(NC(C)=O)C(Cl)(Cl)Cl)sc2c1CCCC2 (stereo not drawn)
Result: T

Ask: Record request — test call for Cc1onc(-c2c(F)cccc2Cl)c1C(=O)NC(=S)NC1CCSC1=O (stereo not drawn)
Result: F

Ask: Record request — test call for CC(C)(C)N1C(=O)[C@H]2[C@@H](c3ccc(Br)cc3)N3C(=O)N(c4cccc(Cl)c4)C(=O)[C@@]3(Cc3ccccc3)[C@H]2C1=O
Result: T

Ask: Record request — test call for CCN(Cc1ccccc1)c1ccc(/C=N/NC(=S)NC(C)C)cc1
Result: T

Ask: Record request — test call for O=Cc1cc([N+](=O)[O-])ccc1N1CCOCC1
Result: F

Ask: Record request — test call for CCc1nc2c(c(=O)c3ccccc3n2C)c(=O)n1C1CCCCCC1
Result: T

Ask: Record request — test call for Cc1cccc(CSC(Nc2ccc(F)cc2)=C(C#N)C#N)c1
Result: F

Ask: Record request — test call for CCCn1c(SC(C(=O)Nc2cccc(OC)c2)c2ccccc2)nc2ccccc2c1=O (stereo not drawn)
Result: F

Ask: Record request — test call for CCOC(=O)c1c(NC(=O)C2(C)Cc3ccccc3C(=O)O2)sc2c1CCCC2 (stereo not drawn)
Result: F

Ask: Record request — test call for CC(C)(C)c1ccc(-c2ccc3c(c2)S(=O)(=O)c2ccccc2C3=O)cc1
Result: F

Ask: Record request — test call for O=C(CNC(c1ccccc1)c1ccccc1)Nc1ccccc1-c1ccccc1
Result: T

Ask: Record request — test call for COc1ccc([C@@H]2[C@@H]3C(=O)N(C(C)(C)C)C(=O)[C@@H]3[C@]3(C)C(=O)N(c4ccc(C)cc4)C(=O)N23)cc1
Result: F

Ask: Record request — test call for CCOC(=O)c1c(NC(=S)Nc2ccc(OC)cc2)sc2c1CCC2
Result: F

Ask: Record request — test call for CC(C)C(=O)NC(=S)Nc1sc2c(c1C(N)=O)CCCC2
Result: F

Ask: Record request — test call for O=C(c1ccc(COc2ccc(Cl)cc2)o1)N1N=C(C(F)F)CC1(O)C(F)F (stereo not drawn)
Result: F

Ask: Record request — test call for Cn1c2ccccc2c(=O)c2c(=O)n(C3CCCCC3)c(-c3ccco3)nc21
Result: F

Ask: Record request — test call for CC(=O)Nc1ccccc1C(=O)C(=O)Nc1cccc(C(=O)NCc2ccccc2)c1
Result: F

Ask: Record request — test call for CCN(Cc1ccccc1)c1ccc(/C=N/NS(=O)(=O)c2ccc(C)c([N+](=O)[O-])c2)cc1
Result: F

Ask: Record request — test call for O=C(CSc1ccc(Cl)cc1)Nc1cccc(-c2nnc(-c3ccco3)o2)c1
Result: F

Ask: Record request — test call for CC[C@@]12C(=O)N(c3cccc(Cl)c3)C(=O)N1[C@H](c1ccc(Br)cc1)[C@@H]1C(=O)N(C(C)(C)C)C(=O)[C@@H]12
Result: T

Ask: Record request — test call for CC[C@@]12C(=O)N(c3ccccc3)C(=O)N1[C@H](c1ccc(Br)cc1)[C@@H]1C(=O)N(C(C)(C)C)C(=O)[C@@H]12
Result: F

Ask: Record request — test call for CCCCNC(=O)c1cccc2c(=O)c(C)c(-c3ccccc3)oc12
Result: F

Ask: Record request — test call for CC(C(=O)NCC1CCCCC1)N1CCN(S(=O)(=O)/C=C/c2ccccc2)CC1 (stereo not drawn)
Result: F

Ask: Record request — test call for NC(=O)CSc1nc2c(c(=O)n1-c1ccccc1)C1(CCCCC1)Cc1ccccc1-2
Result: T
